Would you kindly list SPOT peptide array binding signal intensity for each of these binders?
tgt: CaFus1
experiment_description: SPOT peptide array binding signal intensity (averaged, normalized) (arbitrary units (background-subtracted, floor 0; scale differs between SH3 domains)); higher = stronger binding of the SH3 domain to the peptide

INPUT: # get_value(readout='SPOT peptide array binding signal intensity', item= IFLRISINFPLNYPN )
OUTPUT: 7820

INPUT: Record: ILARAILTIPRVLDK
OUTPUT: 1530

INPUT: Record: KTRLRPAFIQQLWSS
OUTPUT: 912

INPUT: Record: PPIPIVPSSPAPPLP
OUTPUT: ≤ 0
